Source listed as PubChem BioAssay AID256.

System: CD2F1 mice, L1210 leukemia ip, survival T/C
PROCEDURE SUMMARY: NCI In Vivo Anticancer Drug Screen. Data for tumor model L1210 Leukemia (intraperitoneal) in CD2F1 (CDF1) mice
STUDY CONDITIONS: endpoint: mean survival time; dose: 150.0 mg/kg/injection; schedule: Q04DX003 (ip); vehicle: saline; higher = longer survival
Description: The antitumor activity of compounds was measured in mice bearing transplantable tumors. Survival or tumor size were measured and the results are expressed as the measurement made in the treated group (T) divided by the measurement made in the vehicle treated control group (C). The tumor model used in this assay is L1210 Leukemia (intraperitoneal) in CD2F1 (CDF1) mice
Toxic doses and inconclusive results are not listed.
MEASURED ATTRIBUTE: T/C

COMPOUND | READING
CCCCCCCCCCCCCCCC(=O)N1CCCN(C(=O)CCCCCCCCCCCCCCC)C1 | 89 % of control
CCC(O)(CC)c1ccc2ncccc2c1 | 97 % of control
O=C(O)c1ccc(Cl)c(N=C/C=C/c2ccccc2)c1 | 100 % of control

CD2F1 mice, L1210 leukemia ip, survival T/C T/C of C=CC1C[N+]2(SS(=O)(=O)O)CCC1CC2C(O)c1ccnc2ccc(OC)cc12 (centres undefined) is 95 % of control

====

T/C values, listed per item
Test system: CD2F1 mice, L1210 leukemia ip, survival T/C
PROCEDURE SUMMARY: NCI In Vivo Anticancer Drug Screen. Data for tumor model L1210 Leukemia (intraperitoneal) in CD2F1 (CDF1) mice
STUDY CONDITIONS: endpoint: mean survival time; dose: 100.0 mg/kg/injection; schedule: Q04DX002 (ip); vehicle: saline with Tween-80; higher = longer survival
Toxic doses and inconclusive results are not listed.

COMPOUND STRUCTURE STRING | T/C
O=C(O)c1c(Cl)c(Cl)c(Cl)c(Cl)c1C(=O)O | 97 % of control
Nc1ccc(S(=O)(=O)c2ccc(N3CCOCC3)c(N)c2)cc1 | 105 % of control

Let us move to another entry and its T/C.
What the record says about N=C(N)SCc1c(Cl)c(Cl)c(Cl)c(Cl)c1Cl : T/C is 98 % of control

====

Test system: CD2F1 mice, L1210 leukemia ip, survival T/C
PROCEDURE SUMMARY: NCI In Vivo Anticancer Drug Screen. Data for tumor model L1210 Leukemia (intraperitoneal) in CD2F1 (CDF1) mice
STUDY CONDITIONS: endpoint: mean survival time; dose: 400.0 mg/kg/injection; schedule: Q04DX002 (ip); vehicle: saline with Tween-80; higher = longer survival
Inconclusive results and toxic doses are left out.
MEASURED ATTRIBUTE: T/C

These solved cases illustrate the format of a correct answer.
COMPOUND | READING
O=C(CCl)Nc1ccc([N+](=O)[O-])cc1 | 87 % of control
O=C(O)COc1ccc(Cl)cc1Cl.[Cr] | 102 % of control

Let us move to another entry and its T/C.
What the record says about Cc1cc(SC(=O)N(C)C)c(S(=O)(=O)F)cc1Cl : T/C is 93 % of control

====

T/C values, listed per item
Test system: CD2F1 mice, L1210 leukemia ip, survival T/C
PROCEDURE SUMMARY: NCI In Vivo Anticancer Drug Screen. Data for tumor model L1210 Leukemia (intraperitoneal) in CD2F1 (CDF1) mice
STUDY CONDITIONS: endpoint: mean survival time; dose: 400.0 mg/kg/injection; schedule: Q01DX001 (ip); vehicle: Klucel (hydroxypropylcellulose) (HPC); higher = longer survival
Toxic doses and inconclusive results are not listed.

MOLECULE | ASSAYED SYSTEM | T/C
CSc1ccc(NC(C)=O)cc1 | CD2F1 mice, L1210 leukemia ip, survival T/C | 96 % of control
S=C1Nc2ccccc2CS1 | CD2F1 mice, L1210 leukemia ip, survival T/C | 103 % of control
CC1(C(=O)Sc2ccccc2)OC1(C)c1ccccc1 (stereo not drawn) | CD2F1 mice, L1210 leukemia ip, survival T/C | 97 % of control
CCOC(=O)c1c(C)oc2cc3c(C(=O)OCC)c(C)oc3cc12 | CD2F1 mice, L1210 leukemia ip, survival T/C | 93 % of control
COC(=O)c1ccccc1-c1c(C)cccc1[N+](=O)[O-] | CD2F1 mice, L1210 leukemia ip, survival T/C | 89 % of control
COc1cc([N+](=O)[O-])ccc1C(=O)O | CD2F1 mice, L1210 leukemia ip, survival T/C | 103 % of control
CC1(C)OC2C(COC(=O)Oc3ccccc3)OC(n3cnc4c(=O)[nH]c(N)nc43)C2O1 (stereo not drawn) | CD2F1 mice, L1210 leukemia ip, survival T/C | 92 % of control

Let us move to another entry and its T/C.
What the record says about O=C([O-])c1ccccc1[I+]c1ccccc1 : T/C is 111 % of control

====

T/C values, listed per item
Test system: CD2F1 mice, L1210 leukemia ip, survival T/C
PROCEDURE SUMMARY: NCI In Vivo Anticancer Drug Screen. Data for tumor model L1210 Leukemia (intraperitoneal) in CD2F1 (CDF1) mice
STUDY CONDITIONS: endpoint: mean survival time; dose: 100.0 mg/kg/injection; schedule: Q04DX003 (ip); vehicle: acetone; higher = longer survival
Toxic doses and inconclusive results are not listed.

These solved cases illustrate the format of a correct answer.
COMPOUND | T/C
O=C(O)CC12CCCCC1CCCC2 (stereo not given) | 95 % of control
Clc1nc2ccccc2nc1CI | 100 % of control
Nc1ccc(CCCCc2ccccc2)cc1 | 107 % of control
CC1(C(=O)c2ccccc2)OC1c1ccccc1 (stereo not given) | 103 % of control

What the record says about CC1(C)C2CCC1(CS(=O)(=O)O)C(=O)C2.[Ag] (stereo not given) : T/C is 96 % of control

====

System: CD2F1 mice, L1210 leukemia ip, survival T/C
PROCEDURE SUMMARY: NCI In Vivo Anticancer Drug Screen. Data for tumor model L1210 Leukemia (intraperitoneal) in CD2F1 (CDF1) mice
STUDY CONDITIONS: endpoint: mean survival time; dose: 200.0 mg/kg/injection; schedule: Q01DX009 (ip); vehicle: saline sonified; higher = longer survival
Procedure: The antitumor activity of compounds was measured in mice bearing transplantable tumors. Survival or tumor size were measured and the results are expressed as the measurement made in the treated group (T) divided by the measurement made in the vehicle treated control group (C). The tumor model used in this assay is L1210 Leukemia (intraperitoneal) in CD2F1 (CDF1) mice
Toxic doses and inconclusive results are not listed.
T/C values, listed per item

These solved cases illustrate the format of a correct answer.
MOLECULE | ASSAYED SYSTEM | T/C
CN1CC(O)(C(O)C(O)C(O)CO)SC1=S (centres undefined) | CD2F1 mice, L1210 leukemia ip, survival T/C | 101 % of control
COc1cc(OC)c(OC)cc1Br | CD2F1 mice, L1210 leukemia ip, survival T/C | 97 % of control
CC(C)C(Br)C(N)=O (centres undefined) | CD2F1 mice, L1210 leukemia ip, survival T/C | 89 % of control

Let us move to another entry and its T/C.
What the record says about N#CC1(c2ccc(Cl)cc2)CCC1 : T/C is 92 % of control

====

System: CD2F1 mice, L1210 leukemia ip, survival T/C
PROCEDURE SUMMARY: NCI In Vivo Anticancer Drug Screen. Data for tumor model L1210 Leukemia (intraperitoneal) in CD2F1 (CDF1) mice
STUDY CONDITIONS: endpoint: mean survival time; dose: 25.0 mg/kg/injection; schedule: Q01DX009 (ip); vehicle: saline; higher = longer survival
Inconclusive results and toxic doses are left out.
MEASURED ATTRIBUTE: T/C

These solved cases illustrate the format of a correct answer.
COMPOUND STRUCTURE STRING | T/C
C[N+]1=C2CCCC2=C(N)CC1 | 98 % of control
CCN(CC)CCCCNc1ccc(NCCCCN(CC)CC)c2c1C(=O)c1ccccc1C2=O | 109 % of control
CCN(CC)Cc1ccccn1 | 94 % of control
CC(=O)Oc1ccc2c(c1)C(=O)CCCCCC(=O)O2 | 97 % of control

Let us move to another entry and its T/C.
What the record says about N=C(N)SCCSC(=N)N : T/C is 92 % of control

====

T/C values, listed per item
Tested on: CD2F1 mice, L1210 leukemia ip, survival T/C
PROCEDURE SUMMARY: NCI In Vivo Anticancer Drug Screen. Data for tumor model L1210 Leukemia (intraperitoneal) in CD2F1 (CDF1) mice
STUDY CONDITIONS: endpoint: mean survival time; dose: 400.0 mg/kg/injection; schedule: Q01DX009 (ip); vehicle: saline with Tween-80; higher = longer survival
Toxic doses and inconclusive results are not listed.

COMPOUND | READING
O=C(C(=O)N1CC2C=CC1C2)c1c[nH]c2ccccc12 (configuration not stated) | 101 % of control
COC(=O)c1ccc(O)c(O)c1 | 90 % of control
Nc1nc(N)c(N=Nc2ccc(S(=O)(=O)c3ccc(N=Nc4c(N)nc(N)[nH]c4=O)cc3)cc2)c(=O)[nH]1 | 92 % of control
Cc1ccc(S(=O)(=O)NNC(=O)C2(C)CC2(C)C(=O)O)cc1 (configuration not stated) | 100 % of control
Nc1cccc(N2N=C(C(=O)O)CC2=O)c1 | 91 % of control

What the record says about O=C1CCc2cccc(O)c21 : T/C is 95 % of control

What the record says about O=[N+]([O-])c1ccc(O)c(C[P+](c2ccccc2)(c2ccccc2)c2ccccc2)c1 : T/C is 102 % of control

What the record says about CC1CNC(=S)S1 (configuration not stated) : T/C is 105 % of control

What the record says about CCOC(=O)/C(=C\c1ccccc1Cl)C(C)=O : T/C is 87 % of control

What the record says about O=C(O)c1cccc2[nH][nH]c(=O)c12 : T/C is 98 % of control

What the record says about Cc1ccc2c(c1Oc1ccc(S(N)(=O)=O)cc1)C(=O)c1ccccc1C2=O : T/C is 97 % of control

What the record says about COc1ccc(OC)c(NC(=O)Oc2cccc(NC(C)=O)c2)c1 : T/C is 92 % of control

What the record says about COc1cc(C(C)=O)cc(OCc2ccccc2)c1OC : T/C is 96 % of control

What the record says about CCOC(=O)CC1(O)CCCCC1 : T/C is 100 % of control

What the record says about COC(=O)C1=C(C)NC(=O)NC1c1ccccc1 (configuration not stated) : T/C is 97 % of control

What the record says about COC(=O)c1ccc(C(=O)OC)cc1 : T/C is 95 % of control

What the record says about Nc1ccccc1N=Cc1cccc([N+](=O)[O-])c1 : T/C is 100 % of control

What the record says about CN(C=O)c1ccccc1C(=O)O : T/C is 97 % of control

What the record says about CC(C)NC(=O)c1ccc(N/N=[N+](/C)[O-])cc1 : T/C is 117 % of control

What the record says about CN(C)C : T/C is 105 % of control

What the record says about C#CCN(CC#C)C(=O)CCCCCCCCC=C : T/C is 93 % of control

What the record says about O=NN(CC(=O)N/N=C\c1ccc(Cl)cc1)CC(=O)N/N=C/c1ccc(Cl)cc1 : T/C is 96 % of control
